I'd be grateful if you could share measured pIC50 for these entries.
tested_system: Mitogen-activated protein kinase 9 (Homo sapiens)
Sequence (P45984 whole entry): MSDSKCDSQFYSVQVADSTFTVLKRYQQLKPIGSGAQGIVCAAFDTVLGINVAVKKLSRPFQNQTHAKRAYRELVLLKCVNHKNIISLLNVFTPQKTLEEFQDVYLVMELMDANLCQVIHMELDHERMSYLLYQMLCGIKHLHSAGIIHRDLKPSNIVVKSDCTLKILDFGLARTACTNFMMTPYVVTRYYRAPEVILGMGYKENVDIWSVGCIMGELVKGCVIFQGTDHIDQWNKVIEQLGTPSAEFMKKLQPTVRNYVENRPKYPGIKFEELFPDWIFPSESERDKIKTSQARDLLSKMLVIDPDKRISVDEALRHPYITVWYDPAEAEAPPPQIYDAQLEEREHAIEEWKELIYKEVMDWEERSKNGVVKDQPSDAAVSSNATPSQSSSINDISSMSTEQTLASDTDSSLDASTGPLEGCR
experiment_description: Inhibition of JNK2 (unknown origin)
In plain terms, pIC50 is the concentration in mol/L turned into minus its base-10 logarithm.

Determine its reported pIC50: NC(=O)c1ccccc1Nc1nc(Nc2ccc(C(=O)N3CC4CC3CO4)cc2)ncc1Br (centres undefined)
8.08

Determine its reported pIC50: "CN1CC2CCC(C1)N2C(=O)c1ccc(Nc2ncc(Br)c(Nc3ccccc3C(N)=O)n2)cc1"
7.90

Determine its reported pIC50: "NC(=O)c1ccccc1Nc1nc(Nc2ccc(C(=O)N3CCC4(CCOC4)CC3)cc2)ncc1Br"
8.13

Determine its reported pIC50: "NC(=O)c1ccccc1Nc1nc(Nc2ccccc2)ncc1Br"
8.03
